test: Activation of wnt pathway in mouse C2C12 cells assessed as increase in alkaline phosphatase activity; format: cell-based
observedProperty: EC50 (µM)

>>> df
                          structureassmiles  observedproperty  reportedresult
0   CCCCCc1c2c(c(C)c3c1C(=O)OC3)Oc1ccccc1O2              EC50             6.3
1  Cc1c2c(c(CCCCBr)c3c1Oc1ccccc1O3)C(=O)OC2              EC50             8.2
2    CCCCc1c2c(c(C)c3c1C(=O)OC3)Oc1ccccc1O2              EC50             6.7
3  CCCCCCc1c2c(c(C)c3c1C(=O)OC3)Oc1ccccc1O2              EC50             7.6
